Listed next: entries and their corresponding FACS GeoMean-neg.
# measured.target: T1, mouse PRLR on Baf3-mPRLR cells (mouse, UniProt Q08501 20-608)
# T1 construct: whole, on cells
# T1 sequence (looked up): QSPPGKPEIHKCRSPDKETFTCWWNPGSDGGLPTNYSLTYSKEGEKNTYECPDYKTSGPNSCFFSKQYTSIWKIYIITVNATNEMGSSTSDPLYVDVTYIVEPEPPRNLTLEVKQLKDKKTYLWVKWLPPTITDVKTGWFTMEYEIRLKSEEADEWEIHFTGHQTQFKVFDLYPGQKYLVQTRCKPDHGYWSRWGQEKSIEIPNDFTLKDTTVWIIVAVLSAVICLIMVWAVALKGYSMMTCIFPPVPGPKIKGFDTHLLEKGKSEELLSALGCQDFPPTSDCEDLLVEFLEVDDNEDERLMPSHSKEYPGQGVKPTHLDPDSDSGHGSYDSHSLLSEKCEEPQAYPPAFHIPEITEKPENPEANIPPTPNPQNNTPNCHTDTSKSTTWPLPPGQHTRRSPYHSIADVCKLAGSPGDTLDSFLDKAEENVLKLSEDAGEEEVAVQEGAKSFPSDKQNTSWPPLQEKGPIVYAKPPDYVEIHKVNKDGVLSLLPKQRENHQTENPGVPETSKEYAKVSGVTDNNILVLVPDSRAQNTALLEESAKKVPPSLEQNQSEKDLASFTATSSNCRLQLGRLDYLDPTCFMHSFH
# protocol.details: FACS Baf3-mPRLR 10 ug/mL
Give a plain numeric answer without units written out.

Ab13 (antibody, V domains shown, murine monoclonal, isotype G2a; also called murine Ab13) VH: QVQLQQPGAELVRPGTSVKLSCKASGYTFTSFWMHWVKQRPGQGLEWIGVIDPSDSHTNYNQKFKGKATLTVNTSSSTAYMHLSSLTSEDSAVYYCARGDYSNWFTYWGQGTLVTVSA VL: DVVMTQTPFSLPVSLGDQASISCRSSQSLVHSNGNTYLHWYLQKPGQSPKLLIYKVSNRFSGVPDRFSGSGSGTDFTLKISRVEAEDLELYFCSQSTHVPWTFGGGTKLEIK = 143

// next item, FACS GeoMean-neg requested
Input: Given the binder Ab12 (antibody, V domains shown, murine monoclonal, isotype G2a; reported as PRLR agonist; also called murine Ab12) VH: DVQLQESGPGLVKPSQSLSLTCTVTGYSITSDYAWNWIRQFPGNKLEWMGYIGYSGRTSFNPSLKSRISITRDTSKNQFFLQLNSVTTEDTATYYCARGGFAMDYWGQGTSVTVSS VL: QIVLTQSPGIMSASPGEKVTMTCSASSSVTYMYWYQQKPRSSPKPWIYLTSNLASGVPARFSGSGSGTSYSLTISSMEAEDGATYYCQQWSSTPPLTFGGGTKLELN , what is its reported FACS GeoMean-neg?
Output: 90
